Biological target: human PPARγ2 (Homo sapiens, UniProt P37231)
Sequence (P37231 1-505): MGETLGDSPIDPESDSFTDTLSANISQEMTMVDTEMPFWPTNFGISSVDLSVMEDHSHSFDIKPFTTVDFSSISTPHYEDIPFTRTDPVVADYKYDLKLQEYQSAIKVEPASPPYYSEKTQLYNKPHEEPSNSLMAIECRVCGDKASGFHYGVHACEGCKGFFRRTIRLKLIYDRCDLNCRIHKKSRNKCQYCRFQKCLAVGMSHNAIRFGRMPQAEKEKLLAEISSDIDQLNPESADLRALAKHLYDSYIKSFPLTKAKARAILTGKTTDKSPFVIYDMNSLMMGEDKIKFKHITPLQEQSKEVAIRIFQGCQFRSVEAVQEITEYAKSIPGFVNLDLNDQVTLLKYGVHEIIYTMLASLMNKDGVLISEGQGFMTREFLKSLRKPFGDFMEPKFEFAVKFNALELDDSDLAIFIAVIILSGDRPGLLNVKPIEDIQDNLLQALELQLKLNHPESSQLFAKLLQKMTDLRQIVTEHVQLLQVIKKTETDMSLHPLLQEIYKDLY
Outcome measure: Kd

Request: Quick one: Kd for Cc1oc(-c2ccccc2)nc1C(O)COc1ccc(CC2SC(=O)NC2=O)cc1 (stereo not shown) ?
Result: ~1 nM
